target: Tyrosine-protein kinase Fyn (Homo sapiens); assay: biochemical; format: cell-based, Insect cells; conditions: insect cells; also: in other assays of this panel Not Active means under 50% inhibition at 10 µM
Sequence (P06241 whole entry): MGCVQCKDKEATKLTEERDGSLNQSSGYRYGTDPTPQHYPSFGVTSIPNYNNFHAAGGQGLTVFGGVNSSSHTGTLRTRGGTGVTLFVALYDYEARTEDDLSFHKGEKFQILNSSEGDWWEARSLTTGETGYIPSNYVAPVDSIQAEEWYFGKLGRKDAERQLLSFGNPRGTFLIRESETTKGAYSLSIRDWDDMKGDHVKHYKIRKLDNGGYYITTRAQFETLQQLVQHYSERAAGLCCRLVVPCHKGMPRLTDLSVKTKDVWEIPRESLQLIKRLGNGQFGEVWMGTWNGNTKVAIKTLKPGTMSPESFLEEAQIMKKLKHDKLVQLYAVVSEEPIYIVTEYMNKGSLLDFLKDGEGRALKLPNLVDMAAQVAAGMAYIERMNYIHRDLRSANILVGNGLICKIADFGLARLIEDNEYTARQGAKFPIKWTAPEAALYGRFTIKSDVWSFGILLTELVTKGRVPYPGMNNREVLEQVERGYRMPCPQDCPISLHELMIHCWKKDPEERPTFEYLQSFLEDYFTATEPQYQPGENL
Attribute measured: IC50

Exam item: Item: CC(=O)O[C@]1(C(C)=O)CC[C@H]2[C@@H]3C=C(Cl)C4=CC(=O)CC[C@]4(C)[C@H]3CC[C@@]21C [CHLORMADINONE ACETATE] Test system: Tyrosine-protein kinase Fyn (Homo sapiens) Read-out: IC50 Value: ?;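 also: enzymatic inhibition of Fyn kinase activity measured with Poly(Glu:Tyr) as the phosphorylation substrate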; also: in other assays of this panel Not Active means under 50% inhibition at 10 µM
Marked response: Not Active

Exam item: Reported IC50 for Tyrosine-protein kinase Fyn (Homo sapiens), given Clc1ccc(C(c2ccccc2Cl)C(Cl)Cl)cc1 (stereo not drawn) ?
Marked response: Not Active

Exam item: Fill in the recorded IC50 for this compound, with Tyrosine-protein kinase Fyn (Homo sapiens) as test system: CC1(C)[C@@H](O[C@H]2O[C@H](C(=O)O)[C@@H](O)[C@H](O)[C@H]2O[C@@H]2O[C@H](C(=O)O)[C@@H](O)[C@H](O)[C@H]2O)CC[C@]2(C)[C@H]3C(=O)C=C4[C@@H]5C[C@@](C)(C(=O)O)CC[C@]5(C)CC[C@@]4(C)[C@]3(C)CC[C@@H]12
Marked response: Not Active
